These measurements were taken from paper PMC9391358.

# assay.system: Uba6 (Uba6_Apo; Uba6_WT) (Homo sapiens, UniProt A0AVT1)
# Construct: residues 37-1052; crystal from insect cells, His tag cleaved by TEV, C625A
# Sequence (A0AVT1 37-1052): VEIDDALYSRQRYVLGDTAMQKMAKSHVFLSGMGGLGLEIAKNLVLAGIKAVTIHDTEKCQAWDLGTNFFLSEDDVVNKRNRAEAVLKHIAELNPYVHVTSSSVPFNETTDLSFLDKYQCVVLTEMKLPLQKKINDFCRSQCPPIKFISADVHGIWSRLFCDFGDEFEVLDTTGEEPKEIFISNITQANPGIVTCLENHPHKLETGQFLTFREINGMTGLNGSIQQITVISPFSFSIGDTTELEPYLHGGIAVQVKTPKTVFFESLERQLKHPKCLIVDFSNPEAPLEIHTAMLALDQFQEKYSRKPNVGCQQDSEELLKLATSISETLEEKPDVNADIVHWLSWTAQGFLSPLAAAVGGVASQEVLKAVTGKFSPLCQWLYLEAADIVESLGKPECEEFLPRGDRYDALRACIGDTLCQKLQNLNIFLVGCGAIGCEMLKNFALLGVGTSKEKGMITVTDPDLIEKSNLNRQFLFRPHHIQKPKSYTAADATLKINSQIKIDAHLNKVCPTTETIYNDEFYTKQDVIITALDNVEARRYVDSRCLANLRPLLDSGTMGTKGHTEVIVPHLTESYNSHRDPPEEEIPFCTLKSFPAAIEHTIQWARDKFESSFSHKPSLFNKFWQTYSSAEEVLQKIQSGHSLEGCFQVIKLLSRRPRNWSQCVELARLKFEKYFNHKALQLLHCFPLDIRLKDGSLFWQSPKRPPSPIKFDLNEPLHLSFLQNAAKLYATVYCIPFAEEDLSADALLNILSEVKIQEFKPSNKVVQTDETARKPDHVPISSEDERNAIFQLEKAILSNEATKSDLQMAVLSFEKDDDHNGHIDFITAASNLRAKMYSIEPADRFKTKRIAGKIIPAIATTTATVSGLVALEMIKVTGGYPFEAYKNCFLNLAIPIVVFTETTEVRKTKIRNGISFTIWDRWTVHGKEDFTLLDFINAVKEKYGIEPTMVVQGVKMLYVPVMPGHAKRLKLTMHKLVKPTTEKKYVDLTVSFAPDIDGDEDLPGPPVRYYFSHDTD
# test.method.notes: isothermal titration calorimetry
pKd: −log10 of the molar value.
measurement.name: pKd

P: O=P(O)(O)O[C@@H]1[C@H](O)[C@H](O)[C@@H](OP(=O)(O)O)[C@H](OP(=O)(O)O)[C@H]1O [InsP3, D-myo-Inositol 1,4,5-trisphosphate]
Q: O=P(O)(O)O[C@@H]1[C@@H](OP(=O)(O)O)[C@H](OP(=O)(O)O)[C@H](O)[C@H](OP(=O)(O)O)[C@H]1OP(=O)(O)O
I would appreciate it if you could say which entry, P or Q , has the lower pKd value. # answer = label of selected item
P
